These entries and their values trace back to patent US12473250B2.

tested on: various pathogens; test: organism not typed; type: cell-based; conditions: KLPN CRE 27025
ASSAY_READOUT: MIC (µg/mL)
One number for each entry, in µg/mL.

COc1c(N2CCNC(C)C2)c(F)cc2c(=O)c(C(=O)O)cn(C3CC3)c12 (stereo not shown)
3.12

# context switch: different molecule, same MIC
Form field: reported MIC of "C[C@@H](O)[C@H]1C(=O)N2C(C(=O)O)=C(S[C@@H]3CN[C@H](CNS(N)(=O)=O)C3)[C@H](C)[C@H]12"
25

* * *

test system: colistin resistant MCR (+) E. Coli strains; experiment: MIC, broth microdilution, compound alone; assay type: cell-based; conditions: strain 6123520276, MCR (+); compound alone
ASSAY_READOUT: MIC (µg/mL)
One number for each entry, in µg/mL.

Some solved cases for reference:
CC[N+](CC)(CC)CCCCOc1ccc(/C=C/C(=O)c2ccc(OCCCC[N+](CC)(CC)CC)c(CC=C(C)C)c2O)cc1
12.5
CN(C)CCCN(C)CCCCOc1ccc(C2COc3c(ccc4c3C=CC(C)(C)O4)C2)c(OCCCCN(C)CCCN(C)C)c1 (stereo not shown)
25
CC1(C)C=Cc2c(ccc3c2OCC(c2ccc(OCCCC[n+]4ccccc4)cc2OCCCC[n+]2ccccc2)C3)O1 (stereo not shown)
50

Hi, could you look up MIC for each item in my list?
1. CC(C)=CCc1c(OCCCCN(C)CCCN(C)C)ccc(C(=O)/C=C/c2ccc(OCCCCN(C)CCCN(C)C)cc2)c1O
2. CC(C)=CCc1c(OCCCCN(CCCN(C)C)CCCN(C)C)ccc(C(=O)/C=C/c2ccc(OCCCCN(CCCN(C)C)CCCN(C)C)cc2)c1O

1: 6.25; 2: 25

* * *

system: colistin resistant MCR (+) E. Coli strains; assay: MIC, broth microdilution, compound alone; type: cell-based; conditions: strain 6083655967, MCR (+); compound alone
ASSAY_READOUT: MIC

Some solved cases for reference:
CCN(CC)CCCOc1ccc(/C=C/C(=O)c2ccc(OCCCN(CC)CC)c(CC=C(C)C)c2O)cc1
>50 µg/mL
CC(C)=CCc1c(OCC(=O)NC(CCCNC(=N)N)C(N)=O)ccc(C(=O)/C=C/c2ccc(OCC(=O)NC(CCCNC(=N)N)C(N)=O)cc2)c1O (stereo not shown)
>50 µg/mL
Cc1cc(OCCCCC[N+](C)(C)C)cc(OCCCCC[N+](C)(C)C)c1
>50 µg/mL
CC(C)=CCc1c(OCCCC[n+]2ccccc2)ccc(C(=O)/C=C/c2ccc(OCCCC[n+]3ccccc3)cc2)c1O
3.125 µg/mL

Hi, could you look up MIC for each item in my list?
1. Cc1cc(OCCCCN(Cc2ccccn2)Cc2ccccn2)cc(OCCCCN(Cc2ccccn2)Cc2ccccn2)c1.[Cl][Zn][Cl].[Cl][Zn][Cl]
2. O=C(O)CN(CCN(CC(=O)O)CC(=O)O)CC(=O)O [EDTA, Ethylenediaminetetraacetic acid, reference compound]
3. CCN(CC)CCCCOc1ccc(/C=C/C(=O)c2ccc(OCCCCN(CC)CC)c(CC=C(C)C)c2O)cc1

1. 50 µg/mL
2. >250 µg/mL
3. 100 µg/mL

* * *

What MIC was measured for each of the following?
test system: colistin resistant MCR (+) E. Coli strains; assay: MIC, broth microdilution, compound alone; format: cell-based; details: strain 7013177695, MCR (+); compound alone

CC(C)=CCc1c(OCCCC[n+]2ccccc2)ccc(C(=O)/C=C/c2ccc(OCCCC[n+]3ccccc3)cc2)c1O
3.125 µg/mL
CCN(CC)CCCCOc1ccc(/C=C/C(=O)c2ccc(OCCCCN(CC)CC)c(CC=C(C)C)c2O)cc1
100 µg/mL
CC(C)=CCc1c(OCCCCN(CCCN(C)C)CCCN(C)C)ccc(C(=O)/C=C/c2ccc(OCCCCN(CCCN(C)C)CCCN(C)C)cc2)c1O
12.5 µg/mL
O=C(O)CN(CCN(CC(=O)O)CC(=O)O)CC(=O)O [EDTA, Ethylenediaminetetraacetic acid, reference compound]
>250 µg/mL
CC(C)=CCc1c(OCC(=O)NC(CCCNC(=N)N)C(N)=O)ccc(C(=O)/C=C/c2ccc(OCC(=O)NC(CCCNC(=N)N)C(N)=O)cc2)c1O (stereo not shown)
>50 µg/mL

Hi, could you look up MIC for each item in my list?
1. COC(=O)C(CCCNC(=N)N)NC(=O)COc1ccc(C2COc3c(ccc4c3C=CC(C)(C)O4)C2)c(OCC(=O)NC(CCCNC(=N)N)C(=O)OC)c1 (stereo not shown)
2. CC(C)=CCc1c(OCCCC[n+]2ccn(C)c2)ccc(C(=O)/C=C/c2ccc(OCCCC[n+]3ccn(C)c3)cc2)c1O
3. O=C(C=Cc1ccc(OCCCCN2CCNCCNCCNCC2)cc1)c1ccc(OCCCCN2CCNCCNCCNCC2)cc1O.[Cl][Zn][Cl].[Cl][Zn][Cl]
4. CCN(CC)CCCCOc1ccc(C2COc3c(ccc4c3C=CC(C)(C)O4)C2)c(OCCCCN(CC)CC)c1 (stereo not shown)
5. CC[N+](CC)(CC)CCCCOc1ccc(C2COc3c(ccc4c3C=CC(C)(C)O4)C2)c(OCCCC[N+](CC)(CC)CC)c1 (stereo not shown)
6. CC1(C)C=Cc2c(ccc3c2OCC(c2ccc(OCC(=O)NC(CCCNC(=N)N)C(N)=O)cc2OCC(=O)NC(CCCNC(=N)N)C(N)=O)C3)O1 (stereo not shown)
7. Cc1cc(OCCCCN(Cc2ccccn2)Cc2ccccn2)cc(OCCCCN(Cc2ccccn2)Cc2ccccn2)c1.[Cl][Zn][Cl].[Cl][Zn][Cl]

>25 µg/mL
3.125 µg/mL
>50 µg/mL
25 µg/mL
50 µg/mL
>50 µg/mL
50 µg/mL

Hi, could you look up MIC for each item in my list?
1. Cc1cc(OCCCCC[N+](C)(C)C)cc(OCCCCC[N+](C)(C)C)c1
2. CCN(CC)CCCCOc1ccc(/C=C/C(=O)c2ccc(OCCCCN(CC)CC)cc2O)cc1
3. CC(C)=CCc1c(OCCCCN(C)CCCN(C)C)ccc(C(=O)/C=C/c2ccc(OCCCCN(C)CCCN(C)C)cc2)c1O
4. CC(C)=CCc1c(OCCC[N+](C)(C)C)ccc(C(=O)/C=C/c2ccc(OCCC[N+](C)(C)C)cc2)c1O

[">50 µg/mL", ">100 µg/mL", "6.25 µg/mL", "12.5 µg/mL"]

Hi, could you look up MIC for each item in my list?
1. COC(=O)C(CCCNC(=N)N)NC(=O)COc1ccc(/C=C/C(=O)c2ccc(OCC(=O)NC(CCCNC(=N)N)C(=O)OC)c(CC=C(C)C)c2O)cc1 (stereo not shown)
2. CN(C)CCCN(CCCCOc1ccc(C2COc3c(ccc4c3C=CC(C)(C)O4)C2)c(OCCCCN(CCCN(C)C)CCCN(C)C)c1)CCCN(C)C (stereo not shown)

25 µg/mL
25 µg/mL

Form field: reported MIC of CC1(C)C=Cc2c(ccc3c2OCC(c2ccc(OCCCCC[N+](C)(C)C)cc2OCCCCC[N+](C)(C)C)C3)O1 (stereo not shown)
50 µg/mL
